Data provenance is the OligoGym collection.

Target: STK32B
Assay: pooled miR-30 sensor sort-seq; sequence = guide strand; also: reference of the scale not given here
Conditions: shRNA
metric.name: sensor-assay potency score (higher = more potent)
Lab note: write the figure by itself, no unit.

As a guide, the following entries are already answered.
• TTCTTGAACACCGCGTCCCAGT = -0.825
• TTGGATTCTAGAATCATCTCTT = 0.951
• TTGCATGATCTGCAGCTCCCGG = -1.07

Inquiry: Report sensor-assay potency score (higher = more potent) for "TAGTGTCTCGCTTCTGCACGAT" please.
Reply text: -0.331

Inquiry: Report sensor-assay potency score (higher = more potent) for "TTCTGCTCCTTTCACTACCGTC" please.
Reply text: -0.907

Inquiry: Report sensor-assay potency score (higher = more potent) for "TAATGTGAACATGTCCGTGTTC" please.
Reply text: -0.137

Inquiry: Report sensor-assay potency score (higher = more potent) for "TTTCTTAGTGTCTCGCTTCTGC" please.
Reply text: 0.225

----------
Molecular target: GAPDH
Test: pooled miR-30 sensor sort-seq; sequence = guide strand
Details: shRNA
Everything with sensor-assay potency score (higher = more potent) lower than -0.7 is not met; everything else, including exactly -0.7, is met.

Check out these entries, answers already filled in.
- TGGAACATGTAAACCATGTAGT: not met
- ATTGATGGCAACAATATCCACT: met
- TAGTTGAGGTCAATGAAGGGGT: met
- TTGTCATGGATGACCTTGGCCA: met
- TTTTTCTAGACGGCAGGTCAGG: not met

Inquiry: Identify whether the reported sensor-assay potency score (higher = more potent) of the following sequence is -0.7 or greater: "ATTTCCATTGATGACAAGCTTC"
Reply text: not met

Inquiry: Identify whether the reported sensor-assay potency score (higher = more potent) of the following sequence is -0.7 or greater: "TTGCTGTAGCCAAATTCGTTGT"
Reply text: not met

----------
Target: RNASE11
Test: pooled miR-30 sensor sort-seq; sequence = guide strand
Details: shRNA
Reported values of sensor-assay potency score (higher = more potent) for individual entries
Lab note: write the figure by itself, no unit.

As a guide, the following entries are already answered.
- TATTGCATCTCTTCGTCTGTAA: 0.018
- TTCTCTAATGAGGTAACACTAT: -1.05
- TTTAGTAAGACCCTAGTCCTAA: -0.427
- TTGGATTTTTCACTCCTCCAGT: -0.449
- TTATCTTCATTGTGCTTTCTGA: -0.608
- TTCGTCTGTAAATTCTTCTTTA: -0.406
- TGATGCTTCTGCAAGAACCAGG: -0.377

Switching to the query record.
Inquiry: Report sensor-assay potency score (higher = more potent) for "TTTAACTAACAGGATCGGGTTC" please.
Reply text: -0.116

----------
Target: C1orf131
Assay: pooled miR-30 sensor sort-seq; sequence = guide strand
Conditions: shRNA
Everything with sensor-assay potency score (higher = more potent) lower than 0.6 is not satisfied; everything else, including exactly 0.6, is satisfied.

• TTATGATCTTCTTCTGTTCTGT = not satisfied
• TAAATTACTAGATTCTTGGTTC = satisfied

Inquiry: Identify whether the reported sensor-assay potency score (higher = more potent) of the following sequence is 0.6 or greater: "TATTTTCTTGATATCAACTGGG"
Reply text: not satisfied

Inquiry: Identify whether the reported sensor-assay potency score (higher = more potent) of the following sequence is 0.6 or greater: "TTTTTCTTGAAAATATCTGTTT"
Reply text: not satisfied

Inquiry: Identify whether the reported sensor-assay potency score (higher = more potent) of the following sequence is 0.6 or greater: "TTCTTTATGATCTTCTTCTGTT"
Reply text: not satisfied

----------
Target: MPHOSPH9
Experiment: pooled miR-30 sensor sort-seq; sequence = guide strand
Settings: shRNA
Reported values of sensor-assay potency score (higher = more potent) for individual entries
Lab note: write the figure by itself, no unit.

As a guide, the following entries are already answered.
• TATTTGTTTAGAAACAAGCTGC = 0.128
• TAGATCTTGAACCTCCATCTTC = -0.263
• TTGTTTAGAAACAAGCTGCTTC = 0.601
• TTACAATGTAGAACAAGTCTAT = 0.128
• TTAAAGACACATGACACTCTTC = 0.499

Inquiry: Query for MPHOSPH9: what sensor-assay potency score (higher = more potent) does the record show for "TTGCTTGTGAAAATGAGTCTAT" ?
Reply text: -0.111

Inquiry: Query for MPHOSPH9: what sensor-assay potency score (higher = more potent) does the record show for "TTGTTGATGAACTTCCAGGTGA" ?
Reply text: -0.421

Inquiry: Query for MPHOSPH9: what sensor-assay potency score (higher = more potent) does the record show for "TTCATCTACAGTGTTGACCGAG" ?
Reply text: 0.377

Inquiry: Query for MPHOSPH9: what sensor-assay potency score (higher = more potent) does the record show for "TTTATCAACAAGCTTGTTGATG" ?
Reply text: -0.498

Inquiry: Query for MPHOSPH9: what sensor-assay potency score (higher = more potent) does the record show for "TAACGTAGGATCTAGAGTCAGG" ?
Reply text: -0.553

----------
Target: CAMKV
Assay: pooled miR-30 sensor sort-seq; sequence = guide strand
Conditions: shRNA
Everything with sensor-assay potency score (higher = more potent) lower than -0.9 is N; everything else, including exactly -0.9, is Y.

* ATATCTGTCAGTCACCTCCGAT | N
* TTTCATTGTTGAACTGAGCAGA | Y
* TCACTGATGACAATCTTCGAGT | N
* TTCTGGAACTTCTTGCAGGTGT | Y
* TTAAACATACTGCCCTACCTTT | Y

Now for another entry.
Inquiry: Identify whether the reported sensor-assay potency score (higher = more potent) of the following sequence is -0.9 or greater: "TTGAACTGAGCAGAAAATCTGC"
Reply text: Y

----------
Biological target: OXGR1
Assay: pooled miR-30 sensor sort-seq; sequence = guide strand
Conditions: shRNA
metric.name: sensor-assay potency score (higher = more potent)
Lab note: write the figure by itself, no unit.

* TACAGGTTGAAATGGAAGCTGA | -0.61
* TACAACTGCACATCGAGTTTTG | -0.712
* TAATTTTCTTTGCTTGCTCAAG | -1.24

Switching to the query record.
Inquiry: Report sensor-assay potency score (higher = more potent) for "AATAGTATTGAGTTCATCCGAA" please.
Reply text: -0.145

----------
Molecular target: SERPINE2
Test: pooled miR-30 sensor sort-seq; sequence = guide strand
Conditions: shRNA
Everything with sensor-assay potency score (higher = more potent) lower than -0.7 is Not met; everything else, including exactly -0.7, is Met.

• TTGTGCTACAGCTGTGAACTTG = Met
• TACAGCTGTGAACTTGGGCAGG = Not met
• TATTTTAGTGAATACATGCATT = Not met

Inquiry: Identify whether the reported sensor-assay potency score (higher = more potent) of the following sequence is -0.7 or greater: "AACAGAAACACTTGCATCGAGT"
Reply text: Not met

----------
Target: AGPAT6
Test: pooled miR-30 sensor sort-seq; sequence = guide strand
Conditions: shRNA
Everything with sensor-assay potency score (higher = more potent) lower than -0.2 is Not fulfilled; everything else, including exactly -0.2, is Fulfilled.

• TTCATCTGCCTCTCTAGTCATG = Not fulfilled

Inquiry: Identify whether the reported sensor-assay potency score (higher = more potent) of the following sequence is -0.2 or greater: "TCTCTTTGATCTCTTCTTCTAG"
Reply text: Not fulfilled

Inquiry: Identify whether the reported sensor-assay potency score (higher = more potent) of the following sequence is -0.2 or greater: "TTTTTGAACATCATCACCGATG"
Reply text: Not fulfilled

Inquiry: Identify whether the reported sensor-assay potency score (higher = more potent) of the following sequence is -0.2 or greater: "TAAGTGAACATGTTTACTCATG"
Reply text: Not fulfilled

Inquiry: Identify whether the reported sensor-assay potency score (higher = more potent) of the following sequence is -0.2 or greater: "TTGATCTCTTCTTCTAGTGAAG"
Reply text: Not fulfilled

Inquiry: Identify whether the reported sensor-assay potency score (higher = more potent) of the following sequence is -0.2 or greater: "TTGAACATCATCACCGATGTAT"
Reply text: Fulfilled

Inquiry: Identify whether the reported sensor-assay potency score (higher = more potent) of the following sequence is -0.2 or greater: "TATTGATGCAGGTTCCTTCTGG"
Reply text: Fulfilled

Inquiry: Identify whether the reported sensor-assay potency score (higher = more potent) of the following sequence is -0.2 or greater: "ATACTTGATAGCAACAGGGTAA"
Reply text: Not fulfilled

----------
Molecular target: CTBP2
Assay: pooled miR-30 sensor sort-seq; sequence = guide strand
Details: shRNA
Everything with sensor-assay potency score (higher = more potent) lower than -0.8 is Criterion not met; everything else, including exactly -0.8, is Criterion met.

Inquiry: Identify whether the reported sensor-assay potency score (higher = more potent) of the following sequence is -0.8 or greater: "TAAAATATGACGCTGAATCCAA"
Reply text: Criterion met

Inquiry: Identify whether the reported sensor-assay potency score (higher = more potent) of the following sequence is -0.8 or greater: "TTGCTGGTCTATTACTGACCAA"
Reply text: Criterion not met

Inquiry: Identify whether the reported sensor-assay potency score (higher = more potent) of the following sequence is -0.8 or greater: "TATGGTAAAGTCATTGATGAGG"
Reply text: Criterion not met

Inquiry: Identify whether the reported sensor-assay potency score (higher = more potent) of the following sequence is -0.8 or greater: "TCGTTTAGAACCTTCTCGTGGA"
Reply text: Criterion met

Inquiry: Identify whether the reported sensor-assay potency score (higher = more potent) of the following sequence is -0.8 or greater: "TTGCAGTGCAAGGAGACGCAGT"
Reply text: Criterion not met

Inquiry: Identify whether the reported sensor-assay potency score (higher = more potent) of the following sequence is -0.8 or greater: "AATTTCTTAAGCTTTCTGGGAT"
Reply text: Criterion met

Inquiry: Identify whether the reported sensor-assay potency score (higher = more potent) of the following sequence is -0.8 or greater: "AATCGCTGTCTCTTGACTTTGT"
Reply text: Criterion met

Inquiry: Identify whether the reported sensor-assay potency score (higher = more potent) of the following sequence is -0.8 or greater: "TAGAGTCCGCTGTCTCTTCCAC"
Reply text: Criterion met
